system: Rattus norvegicus; assay: Acute in vivo activity measured by total plasma cholesterol concentration levels (TC) at 30 mg/kg dose; assay type: functional
observable: Delta TC
Field: value (include unit after the number)

Consider the worked cases shown below.
CCCCCCCCN(CCCCCCCC)S(=O)(=O)NC(=O)Nc1c(C(C)C)cccc1C(C)C
-53%
CC(C)c1cccc(C(C)C)c1OS(=O)(=O)NC(=O)Oc1cccnc1
-2%
CC(C)c1cccc(C(C)C)c1OS(=O)(=O)NC(=O)Oc1ccc(F)cc1
-21%
Cc1cccc(C(C)(C)C)c1OC(=O)NS(=O)(=O)Oc1c(C(C)C)cccc1C(C)C
-15%

IN: Which Delta TC is reported for this compound? Cc1cc(C(C)(C)C)c(OC(=O)NS(=O)(=O)Oc2ccccc2)c(C(C)(C)C)c1
OUT: -65%

IN: Would you kindly share the measured Delta TC for COc1cc(OC)c(OC(=O)NS(=O)(=O)Oc2c(C(C)C)cccc2C(C)C)c(OC)c1 ?
OUT: -5%

IN: # get_value(readout='Delta TC', item= CCc1cccc(CC)c1COC(=O)NS(=O)(=O)Oc1c(C(C)C)cccc1C(C)C )
OUT: -2%
